// data source = the supplement of paper PMC10899765

test system: MCF10A; test: 5+ nucleoli phenotype percent effect (relative to siNT 0% and siKIF11 100%); higher = more cells with five or more nucleoli; details: 20 nM; 72 h
Each item that follows carries a reported 5+ nucleoli phenotype percent effect.
metric.name: 5+ nucleoli phenotype percent effect (%)

> print(dat)
                      macromolecule.sequence  units  reported
 1  ACCUUGGCUCUAGACUGCUUACU [hsa-miR-212-5p]      %       164
 2  AAUAGGCCACGGAUCUGGGCAA [hsa-miR-1295b-3p]      %      4.51
 3      GAAAGUACAGAUCGGAUGGGU [hsa-miR-8054]      %      24.3
 4     UGCAACUUACCUGAGUCAUUGA [hsa-miR-891b]      %     -7.44
 5       GCGGAGAGAGAAUGGGGAGC [hsa-miR-5739]      %      53.5
 6     GGAGGAACCUUGGAGCUUCGGC [hsa-miR-3928]      %      45.7
 7    AGGUAUUGCCACCCUUUCUAGU [hsa-miR-5681b]      %     -35.5
 8        CGGGCGUGGUGGUGGGGG [hsa-miR-1268a]      %      44.8
 9    GCAGGGACAGCAAAGGGGUGC [hsa-miR-211-3p]      %     -20.9
10  CAAAAGUGAUUGUGGUUUUUGC [hsa-miR-548az-5p]      %      45.1
11     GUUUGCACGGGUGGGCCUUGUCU [hsa-miR-557]      %     -30.1
12      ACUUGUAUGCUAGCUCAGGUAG [hsa-miR-643]      %      68.8

====

Quick list: percent viability per entry.
tested on: MCF10A; assay: percent viability (nuclei count relative to siNT); higher = more viable cells; conditions: 20 nM; 72 h
metric.name: percent viability (%)

> print(dat)
                      macromolecule.sequence        metric.name  reported
 1        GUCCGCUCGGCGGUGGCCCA [hsa-miR-572]  percent viability        96
 2  CUGCAAUGUAAGCACUUCUUAC [hsa-miR-106a-3p]  percent viability      72.6
 3  UGGGGACGUAGCUGGCCAGACAG [hsa-miR-3191-3p]  percent viability      26.7
 4  CAAAGCGCUUCUCUUUAGAGUGU [hsa-miR-518c-3p]  percent viability      44.9
 5  UCGGGCCUGGGGUUGGGGGAGC [hsa-miR-6749-5p]  percent viability      37.7
 6   CGCCGCGCGCAUCGGCUCAGC [hsa-miR-6869-3p]  percent viability      28.8
 7   CACAGCAAGUGUAGACAGGCA [hsa-miR-3120-3p]  percent viability      51.8
 8   UUCGCGGGCGAAGGCAAAGUC [hsa-miR-3124-5p]  percent viability      32.5
 9     CUGGGGAGUGGCUGGGGAG [hsa-miR-6763-5p]  percent viability      29.7
10  CUCUCUACUGACUUGCAACAUA [hsa-miR-4684-5p]  percent viability      72.5
11   GGCUGGGUGCUCUUGUGCAGU [hsa-miR-5589-5p]  percent viability      17.4
12  AGAGGCUGAGAAGGUGAUGUUG [hsa-miR-6884-5p]  percent viability      22.3
13  AUCCUCUUUCGUCCUUCCCACU [hsa-miR-6881-3p]  percent viability      49.2
14    UAAUUUUAUGUAUAAGCUAGU [hsa-miR-590-3p]  percent viability       121
15  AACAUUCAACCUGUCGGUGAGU [hsa-miR-181c-5p]  percent viability        79
16   CCAGACAGAAUUCUAUGCACUUUC [hsa-miR-1324]  percent viability       120
17  CGGGGCCGUAGCACUGUCUGAGA [hsa-miR-128-1-5p]  percent viability      26.1
18     UAAAGAACUCUUAAAACCCAAU [hsa-miR-3133]  percent viability      51.5
19   GAGGGUUGGGUGGAGGCUCUCC [hsa-miR-296-3p]  percent viability      57.1
20  UCUGGAUUGAAGAGACGACCCA [hsa-miR-6839-5p]  percent viability      36.1
21  UGGGGGAGCCAUGAGAUAAGAGCA [hsa-miR-4723-5p]  percent viability      43.6
22   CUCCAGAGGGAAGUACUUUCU [hsa-miR-520a-5p]  percent viability      34.6
23   CCAAUAUUGGCUGUGCUGCUCC [hsa-miR-195-3p]  percent viability       142
24  AAUCCCAAUGCUAGACCCGGUG [hsa-miR-4733-5p]  percent viability      19.5
25   CACAUUACACGGUCGACCUCU [hsa-miR-323a-3p]  percent viability      49.9
26     GACACAUGACCAUAAAUGCUAA [hsa-miR-4643]  percent viability       109
27    ACCCCUGCCACUCACUGGCC [hsa-miR-6801-3p]  percent viability        62
28    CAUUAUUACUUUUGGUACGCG [hsa-miR-126-5p]  percent viability      88.9
29     GUAGAGGAGAUGGCGCAGGG [hsa-miR-877-5p]  percent viability      54.7
30   CUGGGAGGGGCUGGGUUUGGC [hsa-miR-6779-5p]  percent viability      36.8
31   CAAAGUGCUGUUCGUGCAGGUAG [hsa-miR-93-5p]  percent viability      64.1
32           UGCCUUCCUGUCUGUG [hsa-miR-4297]  percent viability      20.9
33  AAUUUGGUUUCUGAGGCACUUAGU [hsa-miR-5002-5p]  percent viability      32.2
34      UACUCAGGAGAGUGGCAAUCAC [hsa-miR-510]  percent viability      20.5
35    AAAGGUAACUGUGAUUUUUGCU [hsa-miR-548ba]  percent viability       146
36  GUAGGGGCGUCCCGGGCGCGCGGG [hsa-miR-6789-5p]  percent viability      77.1
37   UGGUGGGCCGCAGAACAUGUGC [hsa-miR-654-5p]  percent viability      31.2
38         CUAAGAAGUUGACUGAAG [hsa-miR-3653]  percent viability        42
39   CUAGGUAUGGUCCCAGGGAUCC [hsa-miR-331-5p]  percent viability       111
40  UGUGAUAUCAUGGUUCCUGGGA [hsa-miR-3689b-5p]  percent viability      23.6
41   CGCCUGCCCAGCCCUCCUGCU [hsa-miR-4763-5p]  percent viability      38.1
42   CUACAGGCUGGAAUGGGCUCA [hsa-miR-7151-3p]  percent viability      20.6
43   UCUCUGCUCUGCUCUCCCCAG [hsa-miR-6728-3p]  percent viability      28.9
44  AGGGUGGGGCUGGAGGUGGGGCU [hsa-miR-6756-5p]  percent viability        42
45         UGAGAUGACACUGUAGCU [hsa-miR-4770]  percent viability      33.4
46  CACAGGACUGACUCCUCACCCCAGUG [hsa-miR-4700-3p]  percent viability      83.5
47   GAUGAGCUCAUUGUAAUAUGAG [hsa-miR-556-5p]  percent viability       111
